# systemUnderTest: CCK2R (Homo sapiens, UniProt P32239)
# Construct: expressed in transfected cells; host or cells: HEK 293T cells
# Sequence (P32239 1-447): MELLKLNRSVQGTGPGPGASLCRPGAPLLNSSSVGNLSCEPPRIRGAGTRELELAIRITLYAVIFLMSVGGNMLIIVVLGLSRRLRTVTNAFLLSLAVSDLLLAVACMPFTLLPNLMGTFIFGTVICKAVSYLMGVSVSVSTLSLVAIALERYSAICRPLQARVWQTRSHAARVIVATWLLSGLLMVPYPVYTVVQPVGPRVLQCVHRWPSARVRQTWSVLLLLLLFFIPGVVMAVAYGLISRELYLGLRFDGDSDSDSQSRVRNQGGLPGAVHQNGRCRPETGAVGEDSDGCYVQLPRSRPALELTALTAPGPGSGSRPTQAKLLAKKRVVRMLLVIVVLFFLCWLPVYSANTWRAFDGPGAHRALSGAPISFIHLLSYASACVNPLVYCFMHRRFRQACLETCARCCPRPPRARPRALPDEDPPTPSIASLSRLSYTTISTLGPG
# assayRemarks: Competitive binding (FACS) on CCK2R-transfected HEK 293T cells with Cy5-labeled Z360
# experimentalConditions: HEK 293T transfected, Cy5-labeled Z360 competitive ligand (Table 3)
pIC50: −log10 of the molar value.
readoutName: pIC50

1) C[C@@H](O)[C@H](NC(=O)[C@@H]1CSSC[C@H](NC(=O)[C@@H](Cc2ccccc2)NC(=O)COCCOCCNC(=O)[C@H](CCCCNC(=O)c2cccc(NC(=O)N[C@@H]3CN(C4CCCCC4)c4ccccc4N(CC(=O)C(C)(C)C)C3=O)c2)NC(=O)CN2CCN(CC(=O)O)CCN(CC(=O)O)CCN(CC(=O)O)CC2)C(=O)N[C@@H](Cc2ccc(O)cc2)C(=O)N[C@H](Cc2c[nH]c3ccccc23)C(=O)N[C@@H](CCCCN)C(=O)N[C@@H]([C@@H](C)O)C(=O)N1)C(=O)O [Compound I-37, DOTA-K(Z360)-OEG-f[CYwKTC]T-OH] = 7.97
